biological target: Y^7.35A_hNPFF2R (Homo sapiens, UniProt Q9Y5X5, Y417A); test: IP accumulation assay, Y^7.35A mutant of hNPFF2R; type: cell-based; details: Y^7.35A hNPFF2R; ratio to EC50 of NPFF at wt
Sequence (Q9Y5X5 whole entry Y417A): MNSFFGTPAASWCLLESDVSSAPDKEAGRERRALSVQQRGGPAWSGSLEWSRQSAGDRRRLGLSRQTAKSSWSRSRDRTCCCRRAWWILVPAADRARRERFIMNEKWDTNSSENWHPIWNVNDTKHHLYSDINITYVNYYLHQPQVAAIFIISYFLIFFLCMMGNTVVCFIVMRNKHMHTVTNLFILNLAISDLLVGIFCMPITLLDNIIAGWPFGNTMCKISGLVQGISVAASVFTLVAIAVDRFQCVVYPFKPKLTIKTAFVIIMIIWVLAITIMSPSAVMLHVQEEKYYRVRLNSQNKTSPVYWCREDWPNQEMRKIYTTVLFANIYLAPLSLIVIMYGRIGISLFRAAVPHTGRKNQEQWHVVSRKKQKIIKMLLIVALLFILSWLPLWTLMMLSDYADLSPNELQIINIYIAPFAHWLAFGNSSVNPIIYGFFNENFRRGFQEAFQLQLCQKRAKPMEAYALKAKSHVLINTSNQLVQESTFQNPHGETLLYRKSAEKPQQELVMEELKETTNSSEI
READOUT_KIND: x-fold (fold)

>  <COMPOUND>
N=C(N)NCCC[C@H](NC(=O)C12CC3CC(CC(C3)C1)C2)C(=O)N[C@@H](Cc1ccccc1)C(N)=O [RF9, 1-Adamantanecarbonyl-RF-NH2, reference compound]

>  <TARGET_ENTITY>
Y^7.35A_hNPFF2R (Homo sapiens, UniProt Q9Y5X5, Y417A)

>  <UNIT_SPEC>
fold

>  <x-fold>
277

$$$$

A: NC(N)=NCCC[C@@H](NC(=O)C(c1ccccc1)c1ccccc1)C(=O)NCc1ccc(O)cc1 [BIBP3226, reference compound]
B: N=C(N)N/N=C/c1ccc(-c2ccc(Br)cc2C(F)(F)F)o1
C: N=C(N)N/N=C/C12CC3CC(CC(C3)C1)C2
Enquiry: Thanks in advance: please rank these 3 entries by x-fold, highest to lowest. Labels, requested order.
Return: B, C, A
(B: 738 fold, C: 177 fold, A: 66 fold)

FYI, the data here is from paper PMC3404467.
